- measurement_context: 303.15 K; 10000 kPa; Liquid; Vibrating tube method
measure: mass density (kg/m3)

c1ccsc1
1061.36
Cc1cccs1
1017.69
Cc1ccsc1
1018.83
Cc1ccc(C)s1
983.27

----------
- measurement_context: 313.15 K; 5000 kPa; Liquid; Vibrating tube method
measure: mass density (kg/m3)

c1ccsc1 [thiophene]
1045.35
Cc1cccs1 [2-methylthiophene]
1002.93
Cc1ccc(C)s1 [2,5-dimethylthiophene]
969.22
Cc1ccsc1 [3-methylthiophene]
1004.39

----------
- measurement_context: 323.15 K; 20000 kPa; Liquid; Vibrating tube method
measure: mass density (kg/m3)

Cc1ccc(C)s1
972.19
c1ccsc1
1047.45
Cc1cccs1
1005.47
Cc1ccsc1
1006.85

----------
- measurement_context: 328.15 K; 45000 kPa; Liquid; Vibrating tube method
measure: mass density (kg/m3)

c1ccsc1
1062.36
Cc1ccc(C)s1
986.42
Cc1cccs1
1019.86
Cc1ccsc1
1020.94

----------
- measurement_context: 283.15 K; 35000 kPa; Liquid; Vibrating tube method
measure: mass density (kg/m3)

c1ccsc1 [thiophene]
1101.44
Cc1ccsc1 [3-methylthiophene]
1055.46
Cc1ccc(C)s1 [2,5-dimethylthiophene]
1019.33
Cc1cccs1 [2-methylthiophene]
1055.07

----------
- measurement_context: 293.15 K; 35000 kPa; Liquid; Vibrating tube method
measure: mass density (kg/m3)

Cc1ccsc1 [3-methylthiophene]
1046.15
Cc1cccs1 [2-methylthiophene]
1045.56
c1ccsc1 [thiophene]
1091.01
Cc1ccc(C)s1 [2,5-dimethylthiophene]
1010.31

----------
- measurement_context: 318.15 K; 15000 kPa; Liquid; Vibrating tube method
measure: mass density (kg/m3)

Cc1ccsc1
1007.7
Cc1ccc(C)s1
972.8
c1ccsc1
1048.65
Cc1cccs1
1006.33

----------
- measurement_context: 303.15 K; 50000 kPa; Liquid; Vibrating tube method
measure: mass density (kg/m3)

Cc1ccc(C)s1
1010.94
Cc1cccs1
1045.81
c1ccsc1
1090.79
Cc1ccsc1
1046.42

----------
- measurement_context: 298.15 K; 100 kPa; Liquid; Vibrating tube method
measure: mass density (kg/m3)

c1ccsc1
1058.65
Cc1cccs1
1014.79
Cc1ccc(C)s1
980.2
Cc1ccsc1
1016

----------
- measurement_context: 293.15 K; 7000 kPa; Liquid; Vibrating tube method
measure: mass density (kg/m3)

Cc1ccsc1 [3-methylthiophene]
1026.7
c1ccsc1 [thiophene]
1070.33
Cc1ccc(C)s1 [2,5-dimethylthiophene]
990.74
Cc1cccs1 [2-methylthiophene]
1025.73

----------
- measurement_context: 283.15 K; 5000 kPa; Liquid; Vibrating tube method
measure: mass density (kg/m3)

Cc1cccs1
1034.69
Cc1ccc(C)s1
999.21
Cc1ccsc1
1035.47
c1ccsc1
1080.27

----------
- measurement_context: 293.15 K; 20000 kPa; Liquid; Vibrating tube method
measure: mass density (kg/m3)

Cc1ccsc1 [3-methylthiophene]
1036.16
c1ccsc1 [thiophene]
1080.39
Cc1cccs1 [2-methylthiophene]
1035.39
Cc1ccc(C)s1 [2,5-dimethylthiophene]
1000.28

----------
- measurement_context: 283.15 K; 45000 kPa; Liquid; Vibrating tube method
measure: mass density (kg/m3)

Cc1cccs1
1061.09
Cc1ccsc1
1061.37
Cc1ccc(C)s1
1025.27
c1ccsc1
1107.7
